Test: Cmax in Beagle dog at 10 mg/kg, po administered as single dose by LC-MS/MS analysis
Type: ADME, organism-based, Canis lupus familiaris
Design: dose 10 mg/kg, route oral
Conditions: in vivo
reported_metric: Cmax (nM)
Supply the numeric figure in nM, leaving out any unit text.

[in] Item CN1CCN(c2ccc(C(=O)Nc3n[nH]c4ccc(Cc5cc(F)cc(F)c5)cc34)c(NC3CCOCC3)c2)CC1 [ENTRECTINIB] has what recorded Cmax?
[out] 600

----------
Test: AUC (infinity) in Harlan nu/nu mouse at 10 mg/kg, iv administered as single dose by LC-MS/MS analysis
Format: ADME, organism-based
Set-up: dose 10 mg/kg, time infinity, route intravenous
Conditions: in vivo
Kindly supply the reported AUC(0-inf) values for the records listed here.
Supply the numeric figure in µM·h, leaving out any unit text.

[in] Item CN1CCC(Oc2ccc(C(=O)Nc3n[nH]c4ccc(Cc5cc(F)cc(F)c5)cc34)c(NC3CCOCC3)c2)CC1 has what recorded AUC(0-inf)?
[out] 33.1

[in] Item CN(C)CCN(C)C(=O)c1ccc(C(=O)Nc2n[nH]c3ccc(Cc4cc(F)cc(F)c4)cc23)c(NC2CCOCC2)c1 has what recorded AUC(0-inf)?
[out] 7.86

[in] Item CN1CCN(c2ccc(C(=O)Nc3n[nH]c4ccc(Cc5cc(F)cc(F)c5)cc34)c(NCCF)c2)CC1 has what recorded AUC(0-inf)?
[out] 24.7

The origin of these recorded values is ChEMBL document CHEMBL3804811.
